Biological target: T1, Ab-1
T1 construct: also called anti-CD28 scFv harbored in Ab-1
T1 sequence (heavy, as listed by the source, chain 1 of 2): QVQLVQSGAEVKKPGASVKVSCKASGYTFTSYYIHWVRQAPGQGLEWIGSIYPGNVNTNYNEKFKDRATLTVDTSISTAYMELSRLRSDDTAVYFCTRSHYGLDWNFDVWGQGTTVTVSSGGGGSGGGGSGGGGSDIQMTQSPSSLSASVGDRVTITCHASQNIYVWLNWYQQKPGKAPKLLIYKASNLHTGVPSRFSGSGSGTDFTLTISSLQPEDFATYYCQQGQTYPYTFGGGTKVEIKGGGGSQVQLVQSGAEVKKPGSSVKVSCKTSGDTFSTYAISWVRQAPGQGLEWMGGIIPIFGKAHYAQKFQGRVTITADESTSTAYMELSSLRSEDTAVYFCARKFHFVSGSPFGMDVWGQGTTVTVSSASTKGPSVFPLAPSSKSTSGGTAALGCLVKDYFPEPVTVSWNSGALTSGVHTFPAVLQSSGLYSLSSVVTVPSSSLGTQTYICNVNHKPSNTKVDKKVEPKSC
T1 sequence (light, as listed by the source, chain 2 of 2): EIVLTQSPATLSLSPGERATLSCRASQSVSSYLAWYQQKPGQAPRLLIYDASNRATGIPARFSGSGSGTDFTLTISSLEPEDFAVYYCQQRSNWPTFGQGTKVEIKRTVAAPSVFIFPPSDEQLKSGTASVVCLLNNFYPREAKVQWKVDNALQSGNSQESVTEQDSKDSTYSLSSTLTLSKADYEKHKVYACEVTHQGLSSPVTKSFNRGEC
Experiment: BLI (Octet), 200 nM peptide, 100 nM Ab-1;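 note: association and dissociation phases tracked in real time, with kinetics fitted to a 1:1 interaction model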
No end group written: not given here.
Kindly state Octet signal for each of the entries shown.
Answer as a number with no unit attached.

Using known records, supply Octet signal for VDWCPRDLWVHCFA (cysteine pairing not given here; also: biotinylated, site not given here) [Peptide-19]
0.919

Answer with the recorded Octet signal of WDWCPRDLWVHCFA (cysteine pairing not given here; also: biotinylated, site not given here) [Peptide-17] only.
1.15

Please give the documented Octet signal of TDWCPRDLWVHCFA (cysteine pairing not given here; also: biotinylated, site not given here) [Peptide-16]
1.34

Look up Octet signal of RDWCPRDLWVHCFA (cysteine pairing not given here; also: biotinylated, site not given here) [Peptide-3] and report it.
1.22

Give reported Octet signal value for KDWCPRDLWVHCFA (cysteine pairing not given here; also: biotinylated, site not given here) [Peptide-12]
1.13

Item EDWCPRDLWVHCFA (cysteine pairing not given here; also: biotinylated, site not given here) [Peptide-7] : provide Octet signal
1.02

Specify reported Octet signal for the binder shown: ADWCPRDLWVHCFA (cysteine pairing not given here; also: biotinylated, site not given here) [Peptide-2]
0.7

// provenance: patent US20260274955A1
